# tested.on: Schistosoma mansoni thioredoxin glutathione reductase (TGR)
# method.notes: qHTS Assay for the Inhibitors of Schistosoma Mansoni Peroxiredoxins; note: nearly all actives have a fitted effect of over 60% in size; note: potency is the fitted concentration of half-maximal effect
# test.parameters: purified TGR, DTNB reduction, TNB absorbance 405 nm; series mostly up to 114 µM
# Excerpt: Schistosomiasis is a major neglected tropical disease that currently affects over 200 million. It is caused by different species of flatworms, such as Schistosoma mansoni. […] In addition, the fluorescence assay was also subject to fluorescence interference from compound library members. […] The assay followed the reduction of 5, 5'-dithiobis (2-nitrobenzoic acid) (DTNB) (Ellman's reagent) by NADPH and measured the increase in absorbance at 412 nm of the reaction product, TNB. […]
Screen size: about 360,000 compounds; about 11,000 (3.1%) were called active. Roughly 4% stayed inconclusive and do not appear here. The sample as a whole holds a higher share of actives than the screen did.
quantity.kind: Potency

Worked examples follow.
>>> recorded_result("CCN(CC)CCNC(=O)c1cc2c(=O)oc3ccc(C)cc3c2s1")
"inactive"
>>> recorded_result("COc1ccccc1N1CCN(C(CNC(=O)C(=O)NCc2ccc(C)cc2)c2cccnc2)CC1 (stereo unspecified)")
"inactive"
>>> recorded_result("C[C@@H](NC(=O)OC(C)(C)C)c1nnc(S(=O)(=O)Cc2ccccc2)o1")
"0.794 µM (active)"
>>> recorded_result("O=c1cc(-c2ccccc2)n2c(SCc3ccccc3)nnc2[nH]1")
"inactive"
>>> recorded_result("O=C(CSCc1ccccc1)Nc1ccccc1")
"inactive"
>>> recorded_result("CC(C)Cn1c(=O)c2ccccc2n2c(-c3cccc(Cl)c3)nnc12")
"inactive"

For each of the items listed, what is its Potency?
1. COc1ccccc1NC(=O)[C@H](COCc1ccccc1)NC(=O)OC(C)(C)C
2. CC(C)CN(CC(C)C)C(=O)CN1c2cccc3cccc(c23)S1(=O)=O
3. Oc1c(C=Nc2cccc3nsnc23)ccc2ccccc12
4. O=C(Nc1c(C(=O)N2CCN(c3ccc(F)cc3)CC2)oc2ccccc12)c1ccco1
5. CCc1ccccc1NC(=O)CSc1nnc([C@@H](NC(=O)OC(C)(C)C)C(C)CC)o1 (stereo partly specified)

["inactive", "inactive", "7.94 µM (active)", "inactive", "inactive"]

###

# tested.on: Schistosoma mansoni thioredoxin glutathione reductase (TGR) (UniProt Q962Y6)
# method.notes: qHTS Assay for the Inhibitors of Schistosoma Mansoni Peroxiredoxins; note: nearly all actives have a fitted effect of over 60% in size
# test.parameters: purified TGR, DTNB reduction, TNB absorbance 405 nm; series mostly up to 114 µM
Screen size: about 360,000 compounds; about 11,000 (3.1%) were called active. Not shown: some 4% with an inconclusive outcome. Calls follow the shape of the dose curve; as a rule, active = well fitted inhibition curve with a large enough effect; inconclusive = small, poorly fitted or top-dose-only effect; inactive = no such curve, though single readings can be large or run the other way. For the sample, actives were picked, then their nearest neighbours and some compounds at random.
Please answer using one outcome listed in true (1) = active, false (0) = inactive

As a guide, the following entries are already answered.
>>> class_label("CN(C)CC1CCCCC1=O (stereo unspecified)")
"true (1)"
>>> class_label("COc1ccc(C(=O)CC2C(=O)N(C)C(=O)N(C)C2=O)cc1")
"true (1)"
>>> class_label("COc1ccc(OCCC(=O)c2ccc(OC)cc2)cc1")
"true (1)"
>>> class_label("CCC(=O)N1CCc2cc(Br)cc(S(=O)(=O)CCC(=O)N3CCN(c4ccc(F)cc4)CC3)c21")
"false (0)"
>>> class_label("O=C(COc1ccc(Cl)cc1)N(Cc1ccco1)Cc1ccco1")
"false (0)"
>>> class_label("CCCN(CCC)CCCNC(=O)Cn1cc2c(n1)-c1c(oc(C(=O)N3CCCC3)c1C)CC2")
"false (0)"
>>> class_label("Cc1ccc(CNC(=O)CCc2c(C)nc3nc(CNC(=O)OC(C)(C)C)nn3c2C)cc1")
"false (0)"
>>> class_label("c1ccc(C2c3[nH]c4ccccc4c3CCN2Cc2cccn2-c2cccnc2)nc1 (stereo unspecified)")
"true (1)"
>>> class_label("COc1ccc(OCCCC(=O)Oc2ccc(OC)cc2)cc1")
"false (0)"
>>> class_label("O=C(c1cn2ccccc2n1)N1CCc2c([nH]c3ccccc23)C1c1ccccn1 (stereo unspecified)")
"false (0)"

We next turn to a different molecule, shown below.
Dear colleague, could you share the recorded outcome for COc1ccc(OCC(=O)OCCN(C)C)cc1 when you have a moment?
false (0)

###

# tested.on: Schistosoma mansoni thioredoxin glutathione reductase (TGR)
# method.notes: qHTS Assay for the Inhibitors of Schistosoma Mansoni Peroxiredoxins; note: nearly all actives have a fitted effect of over 60% in size
# test.parameters: purified TGR, DTNB reduction, TNB absorbance 405 nm; series mostly up to 114 µM
Among all 360,000 compounds or so, about 11,000 (3.1%) were called active. Roughly 4% stayed inconclusive and do not appear here. The call rests on the fitted dose curve; in most records, active means well fitted inhibition curve with a large enough effect; inconclusive means small, poorly fitted or top-dose-only effect; inactive means no such curve, though single readings can be large or run the other way. The list comes from a sample in which actives are over-represented; it also holds close analogues and randomly drawn compounds.
One label from this list, please: 1.0 = active, 0.0 = inactive

Identify the outcome logged in this assay for the molecule shown: O=C(CC1Oc2ccccc2NC1=O)NCc1ccc(F)cc1 (stereo unspecified)
0.0

Record request — test call for COc1cc(OC)cc(-c2nc3nc(C)c(CCC(=O)Nc4ccccc4)c(C)n3n2)c1
0.0

Outcome logged for Cc1nnc(SCc2cc(=O)c3cc(F)ccc3[nH]2)n1C in this assay:
0.0

Which outcome was assigned to CCOc1ccc(NC(=O)C(=O)NCCc2csc3nc(-c4ccccc4F)nn23)cc1 in this test?
0.0

Look up the recorded call for CCC1CCCCN1C(=O)Nc1cccc(NC(=O)N2CCCCC2CC)c1 (stereo unspecified) in this test.
1.0

Status in this test for Cc1ccc(S(=O)(=O)N(Cc2nc(-c3ccc(Cl)cc3)no2)C2CCCCC2)cc1 ?
0.0

Tell me the assay call for C[C@@]12C(=O)N(c3cccc(Br)c3)C(=O)N1[C@H](c1ccc(Cl)cc1)[C@@H]1C(=O)N(C3CCCCC3)C(=O)[C@@H]12 please.
0.0

###

# tested.on: Schistosoma mansoni thioredoxin glutathione reductase (TGR)
# method.notes: qHTS Assay for the Inhibitors of Schistosoma Mansoni Peroxiredoxins; note: nearly all actives have a fitted effect of over 60% in size
# test.parameters: purified TGR, DTNB reduction, TNB absorbance 405 nm; series mostly up to 114 µM
The campaign covered roughly 360,000 compounds. About 11,000 (3.1%) were called active. About 4% were inconclusive and are not listed. Calls follow the shape of the dose curve; as a rule, active = well fitted inhibition curve with a large enough effect; inconclusive = small, poorly fitted or top-dose-only effect; inactive = no such curve, though single readings can be large or run the other way. For the sample, actives were picked, then their nearest neighbours and some compounds at random.
Hi! Could you answer with just one of these? active, inactive

>>> class_label("Cc1ccc(N2C(=O)C3C4C=CC(CC4)C3C2=O)cc1Cl (stereo unspecified)")
"active"
>>> class_label("CCc1ccc(NC(=O)NC(C)c2ccc3c(c2)OCO3)cc1 (stereo unspecified)")
"inactive"
>>> class_label("CCOc1ccc(NC(=O)c2c(NCc3cccc(OC)c3OC)sc3c2CCC3)cc1")
"inactive"
>>> class_label("CC(=O)Nc1ccc(N2C(=O)C3C4C=CC(CC4)C3C2=O)cc1 (stereo unspecified)")
"inactive"
>>> class_label("Cc1ccc(N2C(=O)C3C4C=CC(CC4)C3C2=O)cc1Br (stereo unspecified)")
"inactive"

Outcome? CCCCN(CC)C(=O)c1ccc2c(c1)OCO2
inactive

###

# tested.on: Schistosoma mansoni thioredoxin glutathione reductase (TGR)
# method.notes: qHTS Assay for the Inhibitors of Schistosoma Mansoni Peroxiredoxins; note: nearly all actives have a fitted effect of over 60% in size
# test.parameters: purified TGR, DTNB reduction, TNB absorbance 405 nm; series mostly up to 114 µM
Screen size: about 360,000 compounds; about 11,000 (3.1%) were called active. About 4% were inconclusive and are not listed. Calls follow the shape of the dose curve; as a rule, active = well fitted inhibition curve with a large enough effect; inconclusive = small, poorly fitted or top-dose-only effect; inactive = no such curve, though single readings can be large or run the other way. The list comes from a sample in which actives are over-represented; it also holds close analogues and randomly drawn compounds.
The categories you may choose from are active, inactive

Reference set (6 entries):
>>> class_label("O=CN1CCN(C2CC(=O)N(c3ccc4c(c3)OCO4)C2=O)CC1 (configuration not stated)")
"active"
>>> class_label("COc1ccc(NC(=O)COc2ccc(C(=O)OCC(=O)N(C)C3CCS(=O)(=O)C3)cc2OC)cc1 (configuration not stated)")
"inactive"
>>> class_label("O=C(NCc1ccco1)c1cc2sccc2n1Cc1ccc(F)cc1")
"inactive"
>>> class_label("CCOc1ccc(C2C(=O)N(C3CCCCC3)CC(=O)N2CCC2=CCCCC2)cc1OC (configuration not stated)")
"inactive"
>>> class_label("Cc1ccc(NC(=O)c2cc(-c3ccc(C)o3)nc3ccccc23)nc1")
"active"
>>> class_label("COc1ccc(S(=O)(=O)Nc2cc3c(C(=O)OC(C)C)c(C)oc3c3ccccc23)cc1")
"inactive"

What classification did COc1cccc2c1CCC(NC(C)=O)C2=O (configuration not stated) end up with in this test?
inactive

What was the test verdict on COc1ccccc1CNC(=O)c1ccccc1NC(=O)c1nsc2ccccc12 ?
inactive

Look up the recorded call for Cc1csc2nc(COC(=O)c3ccccc3NC(=O)c3ccccc3Cl)cc(=O)n12 in this test.
inactive

Answer briefly: the call reported for COc1ccc2c(Cl)c(C(=O)NCc3ccco3)sc2c1 in this assay.
inactive

GET /call?item= COc1ccc(OC)c(NC(=O)CSc2nc3ccccc3nc2N2CCCCC2)c1 returns the recorded outcome of this test.
inactive

Per the records of this test, what outcome belongs to COc1ccccc1NC(=O)c1cc(S(=O)(=O)NCCc2ccccc2)ccc1F ?
inactive

# fetch the recorded call for CN(C(=O)COC(=O)c1cc(-c2ccco2)nc2ccccc12)C1CCS(=O)(=O)C1 (configuration not stated) here
active

Record lookup: outcome of this test for CCN(CC)c1ccc(NC(=O)CN2C(=O)c3cccnc3Oc3ccc(Cl)cc32)c(C)c1 ?
inactive

What did the test return for Cc1nnc(SCC(=O)NC2CCCC2)s1 ?
inactive

Which outcome was entered for the molecule Cc1cc(C(=O)Nc2cccc(C(F)(F)F)c2)c2c(C)nn(-c3cccc(F)c3)c2n1 in this test?
inactive

What call does the record list for CCc1ccc(NC(=O)CN2C(=O)C(c3ccccc3)=NC23CCCCCC3)cc1 ?
inactive

So what was the verdict on CCC(c1nnnn1Cc1ccco1)N(CCc1ccccc1)Cc1cc2cccc(C)c2[nH]c1=O (configuration not stated) in this test?
active

For Cc1ccc(C)c(CN2C(=O)c3ccccc3S(=O)c3ccc(C(=O)N4CCOCC4)cc32)c1 (configuration not stated) , what call appears in the results of this test?
inactive

// return assay outcome for Cc1csc2nc(COc3ccc(NC(=O)COc4ccccc4)cc3)cc(=O)n12
inactive

Answer briefly: the call reported for Cc1ccc(Cn2c(CCCNC(=O)C3CCCCC3)nc3ccccc32)cc1 in this assay.
inactive

Test call for this molecule, please: COc1cccc(CNCCSc2nnnn2C)c1OCc1ccccc1Cl
inactive

Could you check what this test reported for CCOC(=O)C1CCN(c2csc3ccc(C)cc3c2=O)CC1 ?
inactive

Tell me the recorded outcome of this test for CCCOC(=O)CC1C(=O)NCCN1Cc1ccc(F)cc1 (configuration not stated) .
inactive

What classification did COc1ccccc1CN1CCNC(=O)C1CC(=O)N(C)CC1CCOCC1 (configuration not stated) end up with in this test?
active

What was the test verdict on Cc1cnc(CN(C)C(=O)CC2C(=O)NCCN2Cc2cccc(F)c2F)[nH]1 (configuration not stated) ?
inactive
